- procedure-text: self-splicing fitness, log relative to wild type (ln ratio); higher = more splicing; Tetrahymena group I intron in knt gene, E. coli kanamycin selection, DiMSum; sequences stand for … in CUCUCU…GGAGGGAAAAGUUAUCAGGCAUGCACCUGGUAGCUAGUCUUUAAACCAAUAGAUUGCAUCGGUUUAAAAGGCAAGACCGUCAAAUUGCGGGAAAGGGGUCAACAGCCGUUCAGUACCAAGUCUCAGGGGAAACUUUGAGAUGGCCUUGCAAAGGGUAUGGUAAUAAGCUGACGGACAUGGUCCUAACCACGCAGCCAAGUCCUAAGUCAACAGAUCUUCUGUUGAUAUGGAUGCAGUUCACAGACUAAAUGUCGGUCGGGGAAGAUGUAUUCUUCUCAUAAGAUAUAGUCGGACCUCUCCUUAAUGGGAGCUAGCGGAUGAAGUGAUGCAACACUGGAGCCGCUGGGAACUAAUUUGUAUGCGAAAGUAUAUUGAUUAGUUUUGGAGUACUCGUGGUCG;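 also: selection with 25 µg/mL kanamycin versus none on LB agar overnight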
- condition-context: 37 °C
experimental-readout: self-splicing fitness (ln)
Numbers only.

Would you be so kind as to report self-splicing fitness (ln) for each listed record?
1. ACCGAGCAAUAUUACGUACA
2. CAGAAGCAAUAUUACGUAGU
3. ACAUAGCAAUAUUACGUAGC

## Output
1: -2.04; 2: -1.97; 3: -2.04
